Herbicidal effects index, Echinochloa oryzicola Vasing reference
- System: Echinochloa oryzicola Vasing
- assay.comment: Herbicidal effects in paddy field soil treatment (Test Example 1)
- Format: in vivo
- Set-up: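 grade 0 to 5 of growth suppression where 5 is 90% or more and 0 below 10%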
- assay.conditions: paddy field soil treatment; 1000 g of the active ingredient per hectare; wettable powder added dropwise on water surface; 21st day after treatment
metric: Herbicidal effects index, Echinochloa oryzicola Vasing

# compound, value.measured
data = [
    ("CCOCn1c(=O)c(C(=O)C2=C(O)CCCC2=O)nc2ccccc21 [I-50]", 5),
    ("Cn1c(=O)c(C(=O)C2=C(O)CCCC2=O)nc2cc(Cl)ccc21 [I-225]", 5),
    ("CCc1ccc(-n2c(=O)c(C(=O)C3=C(O)CCCC3=O)nc3ccccc32)cc1 [II-24]", 5),
    ("Cc1cccc(-n2c(=O)c(C(=O)C3=C(O)CCCC3=O)nc3ccccc32)c1 [II-20]", 5),
    ("COc1ccc(-n2c(=O)c(C(=O)C3=C(O)CCCC3=O)nc3ccccc32)c(F)c1 [II-174]", 5),
    ("O=C1CCCC(O)=C1C(=O)c1nc2ccccc2n(-c2cccc(C(F)(F)F)c2)c1=O [II-39]", 5),
    ("CCc1cccc(-n2c(=O)c(C(=O)C3=C(O)CCCC3=O)nc3cccnc32)c1 [IV-23]", 5),
    ("COc1cc(-n2c(=O)c(C(=O)C3=C(O)CCCC3=O)nc3ccccc32)ccc1C [II-168]", 5),
    ("CC1(C)CC(=O)C(C(=O)c2nc3cccnc3n(-c3cccc(C(F)(F)F)c3)c2=O)=C(O)C1 [IV-41]", 5),
    ("O=C1CCCC(O)=C1C(=O)c1nc2cccnc2n(-c2cccc(Cl)c2)c1=O [IV-11]", 5),
    ("CC1(C)CC(=O)C(C(=O)c2nc3cccnc3n(-c3ccccc3)c2=O)=C(O)C1 [IV-3]", 5),
    ("O=C1CCCC=C1C(=O)c1nc2ccccc2n(-c2ccccc2[N+](=O)[O-])c1=O [II-129]", 5),
    ("COc1ccc(-n2c(=O)c(C(=O)C3=C(O)CCCC3=O)nc3c(Cl)cccc32)cc1 [II-194]", 4),
    ("COCc1ccc(-n2c(=O)c(C(=O)C3=C(O)CCCC3=O)nc3ccccc32)cc1 [II-149]", 5),
    ("O=C1CCCC(O)=C1C(=O)c1nc2ccccc2n(C2CC2)c1=O [Compound I-14]", 4),
    ("CCCCn1c(=O)c(C(=O)C2=C(O)CCCC2=O)nc2ccccc21 [Compound I-15]", 5),
    ("O=C1CCCC(O)=C1C(=O)c1nc2ccccc2n(-c2ccc(OCC3CCCO3)cc2)c1=O (centres unmarked) [II-116]", 5),
    ("COCCn1c(=O)c(C(=O)C2=C(O)CCCC2=O)nc2cccc(Cl)c21 [I-230]", 5),
    ("CC(C)c1ccc(-n2c(=O)c(C(=O)C3=C(O)CCCC3=O)nc3cccnc32)cc1 [IV-30]", 5),
    ("CSc1cccc(-n2c(=O)c(C(=O)C3=C(O)CCCC3=O)nc3ccccc32)c1 [II-121]", 4),
    ("COCn1c(=O)c(C(=O)C2=C(O)CCCC2=O)nc2ccccc21 [I-49]", 5),
    ("COc1ccc(-n2c(=O)c(C(=O)C3=C(O)CCCC3=O)nc3c(C)cccc32)cc1 [II-245]", 5),
    ("Cc1cc(-n2c(=O)c(C(=O)C3=C(O)CCCC3=O)nc3cc(F)ccc32)no1 [I-281]", 5),
    ("Cn1c(=O)c(C(=O)C2=C(O)CCCC2=O)nc2cccc(Cl)c21 [I-229]", 4),
    ("O=C(C1=C(O)C2CCC(C2)C1=O)c1nc2ccccc2n(-c2ccc(Cl)cc2)c1=O (centres unmarked) [II-14]", 5),
    ("COc1ccc(-n2c(=O)c(C(=O)C3=C(O)CCCC3=O)nc3cc(F)c(OC)cc32)cc1 [II-263]", 5),
    ("CC(C)Oc1cccc(-n2c(=O)c(C(=O)C3=C(O)CCCC3=O)nc3ccccc32)c1 [II-74]", 5),
    ("O=C1CCCC(O)=C1C(=O)c1nc2c(F)cccc2n(-c2ccc3c(c2)OCCO3)c1=O [II-236]", 4),
    ("CC(=O)Cn1c(=O)c(C(=O)C2=C(O)CCCC2=O)nc2ccccc21 [Compound I-94]", 5),
    ("CC1COc2cc(-n3c(=O)c(C(=O)C4=C(O)CCCC4=O)nc4ccccc43)ccc2O1 (centres unmarked) [II-231]", 5),
    ("O=C1CCCC(O)=C1C(=O)c1nc2ccccc2n(-c2ccc3c(c2)CCCC3)c1=O [II-223]", 5),
    ("O=C1CCCC(O)=C1C(=O)c1nc2cc(F)c(F)cc2n(-c2ccccc2)c1=O [II-260]", 5),
    ("O=C1CCCC(O)=C1C(=O)c1nc2ccccc2n(-c2cccnc2)c1=O [I-185]", 5),
    ("O=C1CCCC(O)=C1C(=O)c1nc2ccccc2n(-c2ccc3occc3c2)c1=O [I-277]", 5),
    ("COc1ccc(-n2c(=O)c(C(=O)C3=C(O)CCCC3=O)nc3ccc(C)cc32)cc1 [II-247]", 4),
]

Numbers sourced from patent US8389523B2.
